# Tested system: UniProtKB P47746
# Sequence (P47746 whole entry): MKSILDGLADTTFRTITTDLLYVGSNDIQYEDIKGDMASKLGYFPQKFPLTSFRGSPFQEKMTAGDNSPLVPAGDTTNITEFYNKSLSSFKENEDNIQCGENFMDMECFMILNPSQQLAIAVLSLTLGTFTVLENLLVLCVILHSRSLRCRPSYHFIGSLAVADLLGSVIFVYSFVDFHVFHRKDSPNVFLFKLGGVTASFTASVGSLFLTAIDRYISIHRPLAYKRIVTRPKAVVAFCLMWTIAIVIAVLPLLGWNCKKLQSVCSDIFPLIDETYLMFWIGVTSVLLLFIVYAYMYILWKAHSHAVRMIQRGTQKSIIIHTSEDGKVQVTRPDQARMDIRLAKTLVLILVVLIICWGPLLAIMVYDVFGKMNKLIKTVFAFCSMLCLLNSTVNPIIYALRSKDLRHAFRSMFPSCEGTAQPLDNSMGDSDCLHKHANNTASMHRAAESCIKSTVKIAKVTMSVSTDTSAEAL
# Test details: [3H]CP55,940 displacement binding in mouse cerebellar membranes
# Set-up: species or system ICR mice
# Condition context: read-out: CB1 Binding Affinity (Ki in nM); male mice, cerebellum; N = 4 / value
Value kind: Ki (nM)

>>> recorded_measurement("CCCCCCC(C)(C)c1ccc([C@@H]2C[C@H](O)CC[C@H]2CCCO)c(O)c1 [CP55,940]")
0.56
